Measured values drawn from patent US20030176390A1 for this set.

Measured melting point values are reported for all entries that follow.

The examples below pair each entry with its known result.
OC[C@H]1C[C@@H](n2cnc3c(N[C@H]4CCN(c5nccc6ccccc56)C4)ncnc32)[C@H](O)[C@@H]1O; 119 to 122 °C
OC[C@H]1C[C@@H](n2cnc3c(N[C@H]4CCN(c5ccc(Cl)cn5)C4)ncnc32)[C@H](O)[C@@H]1O; 118 to 121 °C

Could you tell me which melting point is on file for OC[C@H]1C[C@@H](n2cnc3c(N[C@H]4CCN(c5ccccn5)C4)ncnc32)[C@H](O)[C@@H]1O ? 110 to 112 °C

Moving on to the next molecule: Cl.Cl.OC[C@H]1C[C@@H](n2cnc3c(N[C@H]4CCNC4)ncnc32)[C@H](O)[C@@H]1O 160 °C (dec.)

Then OC[C@H]1O[C@@H](n2cnc3c(N[C@H]4CCN(c5cc(C(F)(F)F)ccn5)C4)ncnc32)[C@H](O)[C@@H]1O ? 187 to 190 °C

Check OC[C@H]1O[C@@H](n2cnc3c(N[C@H]4CCN(c5ccccn5)C4)ncnc32)[C@H](O)[C@@H]1O too. 193 to 195 °C

Then OC[C@H]1C[C@@H](n2cnc3c(N[C@H]4CCN(c5ccc(C(F)(F)F)cn5)C4)ncnc32)[C@H](O)[C@@H]1O ? 110 to 111 °C
